The following molecules are listed with their measured T/C values.
- Tested on: BDF1 mice, Lewis lung carcinoma iv, survival T/C
- protocol-description: NCI In Vivo Anticancer Drug Screen. Data for tumor model Lewis Lung Carcinoma (intravenous) in B6D2F1 (BDF1) mice
- assay-conditions: endpoint: median survival time; dose: 0.5 mg/kg/injection; schedule: Q01DX009 (ip); vehicle: saline; higher = longer survival
Toxic doses and inconclusive results are not listed.

CO[C@@]12[C@H](COC(N)=O)C3=C(C(=O)C(C)=C(N)C3=O)N1C[C@@H]1N[C@@H]12; 98 % of control
CC(=O)OCC12C3CC(=O)OC1C(OC(=O)C=C(C)C)C1C(C)=CC(=O)C(OC(C)=O)C1(C)C2C(=O)C(OC(C)=O)C3C (stereo unspecified); 107 % of control
N[C@H](C(=O)O)[C@@H]1CC(Cl)=NO1; 124 % of control
Nc1ncnc2c1ncn2C1C=C(CO)C(O)C1O (stereo unspecified); 102 % of control
Nc1nc(=S)c2[nH]cnc2[nH]1; 114 % of control

We next turn to a different molecule, shown below.
Fill blank: measured T/C of the molecule `CC(=O)O[C@@H]1C(=O)C=C(C)[C@@H]2[C@@H](OC(=O)C=C(C)C)[C@H]3OC(=O)C[C@H]4[C@@H](C)[C@@H](O)[C@]5(O)OC[C@]34[C@H]5[C@@]12C` is ____. 102 % of control
